# Assay protocol: Quantitative High-Throughput drug screen in 47 multiple myeloma cell lines against the NCATS MIPE library collection: KMS11_JCRBsus cell viability assay (AID 1919873); also: nearly all actives have a fitted effect of over 50% in size; also: potency is read from the fitted curve at half-maximal effect
# Conditions: KMS11 myeloma viability, CellTiter-Glo ATP luminescence, 48 h; series mostly up to 45.8 µM
Results filed as inconclusive are left out. Activity calls are given as the source filed them. Calls follow the shape of the dose curve; as a rule, active = well fitted cell-killing curve with a large enough effect; inconclusive = small, poorly fitted or top-dose-only effect, or effect the other way; inactive = no such curve, though single readings can be large or run the other way.
Parameter: Potency

Worked set:
molecule=COc1cc2c(Oc3ccc(-c4cnc(Nc5ccc(F)cc5)n(C)c4=O)cc3F)ccnc2cc1OCCCN1CCOCC1 assay_value="935 nM (active)"
molecule=C[C@@H](Oc1cc(-n2cnc3ccc(CN4CCN(C)CC4)cc32)sc1C(N)=O)c1ccccc1C(F)(F)F assay_value="23.5 nM (active)"
molecule=COC(=O)Nc1ccc(-c2nc(N3CCOCC3)c3cnn(C4CCN(Cc5cccnc5)CC4)c3n2)cc1 assay_value="29.6 nM (active)"
molecule=CCCCCN(CCC12CC3CC(CC(C3)C1)C2)C(=O)NCCCc1ccncc1 assay_value="16600 nM (active)"
molecule=CNC(=O)CN1CCC(Oc2cc3c(Nc4cccc(Cl)c4F)ncnc3cc2OC)CC1 assay_value="37.2 nM (active)"

Query: Give the reported value of Potency for this record: Cc1cnc(Nc2ccc(F)cc2Cl)nc1-c1c[nH]c(C(=O)N[C@H](CO)c2cccc(Cl)c2)c1
Result: 16600 nM (active)

Query: Write down Potency measured for item CC1(O)CC(c2nc(-c3ccc4ccc(-c5ccccc5)nc4c3)c3c(N)nccn23)C1 (centres undefined)
Result: 187 nM (active)

Query: Kindly indicate its recorded Potency. Item: COc1ccc(-n2nc(C(N)=O)c3c2C(=O)N(c2ccc(N4CCCCC4=O)cc2)CC3)cc1
Result: inactive

Query: Item CC1(C)CC(=O)c2c(C(F)(F)F)nn(-c3ccc(C(N)=O)c(NC4CCC(OC(=O)CN)CC4)c3)c2C1 (centres undefined) : provide Potency
Result: 118 nM (active)

Query: Specify reported Potency for the molecule shown: CC(O)C1C(=O)N2C(C(=O)O)=C(SC3CNC(C(=O)N(C)C)C3)C(C)C12 (centres undefined)
Result: inactive

Query: Supply recorded Potency for C=CC(=O)Nc1cccc(Oc2nc(Nc3ccc(N4CCN(C)CC4)cc3OC)ncc2Cl)c1 here.
Result: 13200 nM (active)

Query: // Input: CCN(CC)CCCCNc1ncc2cc(-c3cc(OC)cc(OC)c3)c(NC(=O)NC(C)(C)C)nc2n1 . Output its Potency only.
Result: 23500 nM (active)

Query: Given the molecule CC(C)c1ccc(Cn2ccc3c4c(N)nc(NC5CC5)nc4ccc32)cc1 , write its reported Potency.
Result: 1050 nM (active)

Query: Read off the recorded Potency for CN1CCC(CNc2ccc3ncc(-c4cccc(OC(F)(F)F)c4)n3n2)CC1
Result: 6620 nM (active)

Query: Give the measured Potency for NC(=O)c1cccc2cn(-c3ccc([C@@H]4CCCNC4)cc3)nc12
Result: inactive

* * *

# Assay protocol: Quantitative High-Throughput drug screen in 47 multiple myeloma cell lines against the NCATS MIPE library collection: KMS12PE_JCRB cell viability assay (AID 1918972); also: nearly all actives have a fitted effect of over 30% in size;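 as to viability: 100% = DMSO only wells and 0% = wells with media alone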
# Conditions: KMS12PE myeloma viability, CellTiter-Glo ATP, 48 h; series mostly up to 45.8 µM
Results filed as inconclusive are left out. Activity calls are given as the source filed them. Calls follow the shape of the dose curve; as a rule, active = well fitted cell-killing curve with a large enough effect; inconclusive = small, poorly fitted or top-dose-only effect, or effect the other way; inactive = no such curve, though single readings can be large or run the other way.
Your answer must be one of the following: 1 (active), 0 (inactive)

Would you please look over these solved cases?
compound=N#Cc1c(O)c2c(-c3ccc(-c4ccccc4O)cc3)csc2[nH]c1=O class_label=0
compound=O=C(Cc1ccc(-c2ccc(OCCN3CCOCC3)cc2)cn1)NCc1ccccc1 class_label=1
compound=Cn1c2ccccc2c2c3c(c4c5ccccc5n(CCC#N)c4c21)CNC3=O class_label=1

Query: Per the records of this test, what outcome belongs to Nc1ncnc2c1c(-c1cccc(OCc3ccccc3)c1)cn2C1CC(CN2CCCC2)C1 (centres undefined) ?
Result: 1

Query: How did this test come out for CN(c1ncccc1CNc1nc(Nc2ccc3c(c2)CC(=O)N3)ncc1C(F)(F)F)S(C)(=O)=O ?
Result: 1

Query: Could you check what this test reported for O=C(NCCS(=O)(=O)c1ccc(C(F)(F)F)cn1)c1ccc(Cl)cc1 ?
Result: 0

Query: I would be grateful if you could indicate the recorded call for CC(C)c1ccc(Cn2ccc3c4c(N)nc(NC5CC5)nc4ccc32)cc1 .
Result: 1

Query: What did the test return for Cc1cc(N2CCOCC2)cc2[nH]c(-c3c(NC[C@@H](O)c4cccc(Cl)c4)cc[nH]c3=O)nc12 ?
Result: 1

Query: Hi team, can someone confirm the assay call for CCN(CC)CCCCNc1ncc2cc(-c3cc(OC)cc(OC)c3)c(NC(=O)NC(C)(C)C)nc2n1 ?
Result: 1

* * *

# Tested on: CAOV3
# Assay protocol: Primary qHTS to identify gynecologic anti-cancer compounds using libraries of approved drugs and bioactive compounds (AID 1345084); also: nearly all actives have a fitted effect of over 55% in size
# Conditions: Gynecologic cancer cell panel viability, ATPlite luminescence, 48 h; series mostly up to 57.5 µM
Results filed as inconclusive are left out. The source made the active and inactive calls. Calls follow the shape of the dose curve; as a rule, active = well fitted cell-killing curve with a large enough effect; inconclusive = small, poorly fitted or top-dose-only effect, or effect the other way; inactive = flat fitted curve, though single readings scatter.
Respond only with the outcome that fits, drawn from t = active, f = inactive

molecule=C[C@]1(CO)CN(c2cc(C(=O)Nc3ccc4c(c3)-c3c(c(C(N)=O)nn3-c3ccc(F)cc3)CC4)c(Cl)cn2)C[C@@]1(C)CO class_label=f
molecule="COc1ccc(-c2cc3c(C)nc(N)nc3n(C3CCC(OCCO)CC3)c2=O)cn1 (centres undefined)" class_label=t
molecule=COc1cc2c(Oc3ccc(-c4cnc(Nc5ccc(F)cc5)n(C)c4=O)cc3F)ccnc2cc1OCCCN1CCOCC1 class_label=f
molecule=O=c1c2ccccc2nc2n1CCc1c-2[nH]c2ccccc12 class_label=f
molecule=COc1cc(Nc2ncc(F)c(Nc3ccc4c(n3)N(COP(=O)(O)O)C(=O)C(C)(C)O4)n2)cc(OC)c1OC class_label=t

Query: What call does the record list for Cc1cc(C(=O)N2CCN(c3cccc(Cl)c3)CC2)n(-c2ccccc2)n1 ?
Result: f

Query: Called result for Cc1cc(Nc2ncnc3ccc(-c4ccc(CNCCS(C)(=O)=O)o4)cc23)ccc1Oc1ccn2ncnc2c1
Result: f

Query: Which outcome was assigned to CC(=O)Nc1nc(C)c(-c2ccc(Cl)c(S(=O)(=O)NCCO)c2)s1 in this test?
Result: t

* * *

# Assay protocol: qHTS of pediatric cancer cell lines to identify multiple opportunities for drug repurposing: Confirmatory screen for NB-EBc1 cells (AID 1347115);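 also: cells exposed to compound for 48 h before the viability read; nearly all actives have a fitted effect of over 45% in size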
# Conditions: NB-EBc1 neuroblastoma cells, viability (cytotoxicity); series mostly up to 45.9 µM
Records with an inconclusive call do not appear. Activity calls are given as the source filed them. The call rests on the fitted dose curve; in most records, active means well fitted cell-killing curve with a large enough effect; inconclusive means small, poorly fitted or top-dose-only effect, or effect the other way; inactive means no such curve, though single readings can be large or run the other way.
Tick one outcome: active, inactive

compound=Cc1cn(-c2cc(NC(=O)c3ccc(C)c(Nc4nccc(-c5cccnc5)n4)c3)cc(C(F)(F)F)c2)cn1 class_label=inactive
compound=CN1CCN(Cc2ccc(NC(=O)Nc3ccc(Oc4cc(NC(=O)C5CC5)ncn4)cc3)cc2C(F)(F)F)CC1 class_label=active
compound=O=C(C=Cc1cccnc1)NCCCCC1CCN(C(=O)c2ccccc2)CC1 class_label=inactive
compound=CCS(=O)(=O)c1cccc(-c2cc(C(=O)NC3CCN(C)CC3)c(C)c3[nH]c4ncc(C)cc4c23)c1 class_label=active
compound=CC(=O)OCC(=O)[C@@]1(O)[C@H](C)C[C@H]2[C@@H]3C=C(C)C4=Cc5c(cnn5-c5ccccc5)C[C@]4(C)[C@@H]3[C@@H](O)C[C@@]21C class_label=active

Query: Give the logged outcome of this assay for the following compound: O=c1[nH]nc(Sc2ncc([N+](=O)[O-])s2)n1-c1ccc2c(c1)OCCO2
Result: active

Query: Please share the test call associated with COc1cc2c(Oc3ccc(-c4cnc(Nc5ccc(F)cc5)n(C)c4=O)cc3F)ccnc2cc1OCCCN1CCOCC1 .
Result: active

Query: Tell me the assay call for NC(=O)Nc1cc(-c2cccc(F)c2)sc1C(=O)N[C@H]1CCCNC1 please.
Result: active

Query: Please indicate how the test categorized COc1cccc2nc(-c3cccs3)nc(NN3C(=O)C=C(C)C3=O)c12 .
Result: active

* * *

# System: CP256
# Assay protocol: qHTS profiling for inhibitors of Plasmodium falciparum proliferation (AID 504749); also: nearly all actives have a fitted effect of over 60% in size
# Conditions: P. falciparum in erythrocytes, SYBR Green DNA, 72 h; series mostly up to 28.7 µM
Records with an inconclusive call do not appear. Activity calls are given as the source filed them. The call rests on the fitted dose curve; in most records, active means well fitted inhibition curve with a large enough effect; inconclusive means small, poorly fitted or top-dose-only effect; inactive means flat fitted curve, though single readings scatter.
Please answer using one outcome listed in t (active), f (inactive)

Here's what some known entries look like.
compound=C[C@H]1C[C@@H]2[C@@H]([C@@H](O)C[C@@]3(C)[C@H]2CC[C@]3(O)C(=O)CO)[C@@]2(C)C=CC(=O)C=C12 class_label=f
compound=Nc1ccn([C@@H]2O[C@H](CO)[C@H](O)C2(F)F)c(=O)n1 class_label=t
compound="CN1c2cc(O)c(N=NC(N)=O)cc2CC1S(=O)(=O)O (stereo not drawn)" class_label=f
compound=CC=CC1=C(C(=O)O)N2C(=O)[C@H](NC(=O)[C@H](N)c3ccc(O)cc3)[C@@H]2SC1 class_label=f
compound=COc1c(N2C[C@@H]3CCCN[C@H]3C2)c(F)cc2c(=O)c(C(=O)O)cn(C3CC3)c12 class_label=f

Query: # outcome recorded in this test, key = COC(=O)C[C@](O)(CCCC(C)(C)O)C(=O)O[C@@H]1C(OC)=C[C@]23CCCN2CCc2cc4c(cc2[C@H]13)OCO4
Result: t

Query: Recorded test call requested for CC1(C)O[C@@H]2C[C@@H]3[C@H]4C[C@@H](F)C5=CC(=O)C=C[C@]5(C)[C@@]4(F)[C@@H](O)C[C@]3(C)[C@]2(C(=O)CO)O1
Result: f

Query: Called result for Nc1ccc(S(=O)(=O)Nc2ncccn2)cc1
Result: f

Source listed as PubChem BioAssay (NCATS).
